# Tested on: MS2 coat protein
# Procedure Text: apparent KD of MS2 coat protein; designed switch direction (-1 OFF switch, 1 ON switch): 1; higher = weaker reporter binding
# Experimental Conditions: input ligand: none
Assay Metric: apparent KD of MS2 coat protein (nM)
Please give a number only; it is taken to be in nM.

| Sequence Input | Assay Metric | Unit Label | Value Observed |
| --- | --- | --- | --- |
| AUUUCUAGCACAGGAUAUCAUGCGAAAAUUGCGUGAGAAGGGUGGACGCUGUCAUUCACGGAAGACAUGAGGAUCACCCAUGUC [SameState NG1 #76] (Eterna round: R96, puzzle: Same State NG 1) | apparent KD of MS2 coat protein | nM | 102 |
| GAGCCAGUCCGAGGAUAUUCAUAUUAACACAUGAGGAUCACCCAUGUAGGCUCAGAAGAGCCUUGGGAGAAGGCGGACUGGCUC [SS-NG2-LRO14] (Eterna round: R96, puzzle: Same State NG 2) | apparent KD of MS2 coat protein | nM | 311 |

Ask: Let me know recorded apparent KD of MS2 coat protein for UAUCCAUAGAUAGGAUAUUAGUGAACAUGAGGAUCACCCAUGUUUUGCUUGGUUUUAAGUUAAUCUGAGAAGGAUCUUGAUGAA [SameState NG2 #5] (Eterna round: R96, puzzle: Same State NG 2) , thanks.
Result: 20.4

###

# Test system: MS2 coat protein
# Procedure Text: apparent KD of MS2 coat protein; designed switch direction (-1 OFF switch, 1 ON switch): -1; higher = weaker reporter binding
# Experimental Conditions: input ligand: microRNA oligo, concentration not stated
Below: a set of entries, each annotated with reported apparent KD of MS2 coat protein.
Please give a number only; it is taken to be in nM.

Example results:
| Sequence Input | Unit Label | Value Observed |
| --- | --- | --- |
| UCUCUUGGGCAAGGAUAUCCUGCGCGGUUCCGGUUCGUGUCUGUCACAUGAGGAUCACCCAUGUGGGAGAAGGUGCCUGCGGUU [Design 76] (Eterna round: R96, puzzle: Exclusion NG 2) | nM | 13.1 |
| AAAGAAACAUGAGGAUCACCCAUGUCUGAUCCAAUGUUUAGUCAGGAUAUGCGUCCGACUUCGGAGCAGAAGGGAUACAGGUAG [Anlaanma] (Eterna round: R96, puzzle: Exclusion NG 3) | nM | 357 |
| ACAUGAGGAUCACCCAUGUCAGGCAGGUCCACUCCGGCUGUUGAGGAUAUAGCCCGGUAUCCGCGCUAGAAGGUGAGGGCCGGC [Aenatbe mod 26] (Eterna round: R96, puzzle: Exclusion NG 3) | nM | 15.7 |
| CUCGUGCAGCAAAGCUGUACGAGUACAUGAGGAUCACCCAUGUAGGAUAUGGUACGCAAAGCGUGCUAGAAGGAUAUGUGAAAG [Mat - Exclusion NG 3 - Mod of JL - D89] (Eterna round: R96, puzzle: Exclusion NG 3) | nM | 31.4 |
| UUUAUGUCAGGAUAUGAUUAGAUCUACUUCGGUAGAUCUAAUCAGAAGGGACAUGAGGAUCACCCAUGUAGUUU [Ex4 - 3 - 13] (Eterna round: R96, puzzle: Exclusion 4) | nM | 137 |

Ask: Let me know recorded apparent KD of MS2 coat protein for GAUUAUGCAAGCUUUUGGGACAUGAGGAUCACCCAUGUUCGUCUUAUUGAUCUAGGUACGCUGACGUACCUAGAUCU [JL-sv1-2.32 Brourd mod] (Eterna round: R96, puzzle: Sensor v3, turn-off variant 1) , thanks.
Result: 52.1

Ask: Let me know recorded apparent KD of MS2 coat protein for ACAUGAGGAUCACCCAUGUCAGGUUGGUUCUCUCCGGCUGUUGAGGAUAUAGUCCGGUAUCCGCGCUAGAAGGUGAGGGCUGGC [Aenatbe mod 14] (Eterna round: R96, puzzle: Exclusion NG 3) , thanks.
Result: 20.1

Ask: Let me know recorded apparent KD of MS2 coat protein for CAUUCCGAGCGAGGAUAUCAGUAAAAGGGAAGCUGAGAAGGCGCAAACAUGAGGAUCACCCAUGUCACACGCGGGUAGUUUUCC [Ditiso] (Eterna round: R96, puzzle: Exclusion NG 1) , thanks.
Result: 9.74

Ask: Let me know recorded apparent KD of MS2 coat protein for GCAGCGUAUGUAGGAUAUCGGUCAGUUUCUGAUCGAGAAGGACAUGAGGAUCACCCAUGUAUUAUCAUGCGUGAGCAUGGCUGC [JL ENG1 3.71] (Eterna round: R96, puzzle: Exclusion NG 1) , thanks.
Result: 115

###

Below: a set of entries, each annotated with reported apparent KD of K4 kissing-loop reporter.
# Tested on: K4 kissing-loop RNA reporter
# Procedure Text: apparent KD of K4 kissing-loop reporter; higher = weaker reporter binding
# Experimental Conditions: Eterna round: R107; input ligand: none
Please give a number only; it is taken to be in nM.

Example results:
| Sequence Input | apparent KD of K4 kissing-loop reporter (nM) |
| --- | --- |
| UAAUCCUAGUGAUAAUAAUCAAGUGGUGGGCGAGGACCGGUACGGCCGCCACUCGAAUAUGCAGUGAUGUUGUAAUCCGGAUAAU [Exclusion - Tryptophan A (Freestyle 6)] | 919 |
| UGAUACCAGACUGAUACCAGCUAGUGAUGUUAGCUGAAACAGGAACAGGCAAAGCCUGCUAGCCCUUGGCAGCAGUCUGGUAUCU [TheoBX 11 #SwitchBubble #StaticStem] | 96.9 |
| GGAGGCCAGGCCUGCGAAGUGAUGUUUUGACGAGGACCGGUACGGCCGCCACUCGAAUGUUCUAUCAUCGUACGAACUUCUGCGU [theeternabot_exclusion_KL_Trp_A_26] | 496 |
| GCAUCCGAUGCAGGAUAUAGAUGAACGAGUGAUGUUUGGAAUUUAUGUCCAAAGCCUACGAUCAAACUAGAAGGGCAUCGGAUGC | 161 |
| GCCGUAGAUGGAAGGAGCGACUUCAGCGGAUAAACGUGACAAUUGGAGUGAUGUUCGCAAGGUCAGGUAGGUCGCCAUCUACGGC | 260 |
| GUAGGAUGAGGAGGAGGAUGAAUUACUGAAGGAGCGCAGAGAAAUGCAGGUAGGUCGCGGUAAAGAAGUAUAGUGAUGUUAUAUC [#09 K4 Arginine A Same State] | 657 |
| AAACAACGUGACGAUACCAGCUUACUCGGCAAGCCAGUGAUGUUGGUGAAAAGGAGUCAAAGCCCUUGGCAGCGUCGAAGGUUUG [Leteon] | 334 |
| AACUCUCAGACACUUGAGUGAUGUUCGGGCCGAGGACCGGUACGGCCGCCACUCGGGUCUGAGAGAGGUUAUCAAAGAUAGCCAA [Omei KL Tryp A SS A v9] | 153 |
| GGGAGAAGUGGUGUUGAUUAAGAAGCGGAAGGAGCGCCGAAGAAGGCAGGUAGGUCGCCGAAAUAUAGUGAUGUUAUAUAAAGGG [ExArg.B] | 137 |
| AGGGCUGAGAGCGAUACCAGCGGUAACUGUAUGGUCCAAUAGAGUGAUGUUUUAUAGAGCCGCCCUUGGCAGCGCAAUCUAUUAG [XTheo-B5] | 424 |

Here is another sequence to look at.
Ask: Write apparent KD of K4 kissing-loop reporter of UGAUACCAGACGGCCGCCACUCCUGCAGUCAAAGACUGCUAAAGGAAAUUCGUCCAGUGAUGUUGGAGGACCGGGUCUGGUAUCU [TrypBX 13 #SwitchBubble #Palindromic #StaticStem] ; system used: K4 kissing-loop RNA reporter;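 further: bound reporter read as fluorescence of individual clusters on recovered sequencing chips by microscopy, with normalized cluster intensities fitted with a binding model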
Result: 1070

###

# Tested on: MS2 coat protein
# Procedure Text: apparent KD of MS2 coat protein; designed switch direction (-1 OFF switch, 1 ON switch): -1; higher = weaker reporter binding
# Experimental Conditions: input ligand: none
I would appreciate it if you labelled entries true when apparent KD of MS2 coat protein is 60 nM or higher, otherwise false.

Please review the following examples before continuing.
| Sequence Input | Category Label |
| --- | --- |
| ACGACGUAAGGAUAUACAUGAGGAUCACCCAUGUGGAGAUCCAGAGGAGAGACCUGACGUAGAAGGUGCGUCGA [Eternabot (L2) Solution 87] (Eterna round: R97, puzzle: Exclusion 3) | true |
| AUAUUAAUAGUAAGGAUAUGCGUAUAUAUAAUUAUGCAGAAGGUACAUGAGGAUCACCCAUGUAUUAAUGUAUA [LRO-BmodExc4-01-Oppy's Opus] (Eterna round: R97, puzzle: Brourd's mod of Exclusion 4) | false |
| UCUUAGCAAGCAAAUGGGUACAUGAGGAUCACCCAUGUGCUCGUCUUAUAAGGUACUGUGACGAAAGUCACGGUACC [mod--Eli8] (Eterna round: R97, puzzle: Sensor, turn-off variant 1) | false |

Ask: hey, is apparent KD of MS2 coat protein for this one >= 60 nM? ACAUGAGGAUCACCCAUGUAAGGUUGGUUUUCUCCGGCUGUUGAGGAUAUAGUCCGGUAUCCGCGCUAGAAGGUGAGGGUUGGC [Aenatbe mod 10] (Eterna round: R96, puzzle: Exclusion NG 3)
Result: true

Ask: hey, is apparent KD of MS2 coat protein for this one >= 60 nM? GCCUUAUCCGUCAGGAUAUACAGCCGCUCCUUGUUGUAGAAGGGACAUGAGGAUCACCCAUGUACGUACCAUUG [alecazam5] (Eterna round: R97, puzzle: Brourd's mod of Exclusion 4)
Result: false

Ask: hey, is apparent KD of MS2 coat protein for this one >= 60 nM? UAAUAAAGUGUGAGGAUAUGCUGGUCGAUAGAUCAGCAGAAGGCACAUGAGGAUCACCCAUGUAAUAUAUUUUA [Mat - Exclusion 4 - JL Mod - D46] (Eterna round: R96, puzzle: Brourd's mod of Exclusion 4)
Result: false

Ask: hey, is apparent KD of MS2 coat protein for this one >= 60 nM? UACGUGUCAGGAUAUGCGUUGGUACAGAAGUAUGGCCAACGGCAGAAGGGACAUGAGGAUCACCCAUGUCGUCG [Eternabot (L1) Solution 60] (Eterna round: R97, puzzle: Exclusion 4)
Result: false
